Kindly supply the reported inhibition values for the records listed here.
- Experimental Target: Serine/threonine-protein kinase PAK 1 (Homo sapiens) (UniProt Q13153);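 also: reported values are mean percent inhibition of PAK1 activity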
- Sequence (Q13153 whole entry): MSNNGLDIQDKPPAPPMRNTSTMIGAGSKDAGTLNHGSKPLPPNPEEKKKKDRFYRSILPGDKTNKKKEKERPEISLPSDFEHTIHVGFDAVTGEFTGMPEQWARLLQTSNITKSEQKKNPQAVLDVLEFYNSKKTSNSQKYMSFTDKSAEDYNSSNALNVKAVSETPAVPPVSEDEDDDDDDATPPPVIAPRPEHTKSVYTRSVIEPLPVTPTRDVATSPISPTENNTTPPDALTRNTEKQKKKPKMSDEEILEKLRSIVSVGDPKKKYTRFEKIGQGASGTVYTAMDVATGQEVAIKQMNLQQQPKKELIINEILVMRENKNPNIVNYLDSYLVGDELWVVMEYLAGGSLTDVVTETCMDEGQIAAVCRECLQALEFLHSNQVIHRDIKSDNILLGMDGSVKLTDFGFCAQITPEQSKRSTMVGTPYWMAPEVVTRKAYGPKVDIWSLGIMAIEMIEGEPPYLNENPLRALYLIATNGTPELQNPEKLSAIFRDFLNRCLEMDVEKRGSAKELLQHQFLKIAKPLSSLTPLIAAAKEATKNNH
- Applied Conditions: at 1 µM
Numbers only, in %.

Would you mind listing inhibition for each of the following molecules?
1. C[C@@H](Oc1cc(-n2cnc3ccc(OC4CCN(C)CC4)cc32)sc1C(N)=O)c1ccccc1Cl
2. O=C(Nc1n[nH]c2nc(-c3ccco3)ccc12)C1CC1
3. C#Cc1cccc(Nc2ncnc3ccc(OCCCCNCCS(C)(=O)=O)cc23)c1
4. CCC(=O)Nc1ccc(C)c(-c2ccc(C(=O)NCC3CC3)cc2)c1

1. 7.26
2. 1.74
3. 7.48
4. 9.02

From: ChEMBL document CHEMBL1961873
